- Test system: Plasmodium berghei
- test_description: Screen against P. berghei liver stage (PbLuc), transformed with Luciferase, at 10uM
- Assay type: functional, HepG2
- measurement_setup: tested at 10 uM
Among all 69,000 compounds or so, about 8,600 (12%) showed an effect of 50% or more. For the sample, strong results were picked, then their nearest neighbours and some compounds at random.
compounds and their reported INHIBITION
Please respond with the number in % and leave the unit unwritten.

Cc1noc(C)c1CNCC1Cn2nncc2CO1 (stereo unspecified) | 40.3
COC(=O)[C@H](C)NC(=O)Cn1ccc2ccc(F)cc21 | 50.8
N#Cc1c(Cl)nsc1NCCN1CCOCC1 | 39.9
CC(C)n1nc(CN2CCCCC2)c2c1CN(C(=O)c1ccno1)C2 | 26.5

Q. Given Cc1nc(CC(=O)NCCN2CCC(c3ccccc3C)C2)cs1 (stereo unspecified) , state its recorded INHIBITION.
A. 42.4

Q. Given "COC(=O)CNC(=O)Cn1ccc2ccc(F)cc21" , state its recorded INHIBITION.
A. 13.9

Q. Given "COc1ccccc1C1(CNc2ncc(S(N)(=O)=O)s2)CC1" , state its recorded INHIBITION.
A. -10.9

----------
- System: Plasmodium berghei
- test_description: Screen against P. berghei liver stage (PbLuc), transformed with Luciferase, at 10uM
- Format: functional, HepG2
- measurement_setup: tested at 10 uM
In all, about 69,000 compounds went through this assay and about 8,600 (12%) showed an effect of 50% or more. The entries come from a sample that favours strong results as a whole.
measurement_type: INHIBITION (%)
Please respond with the number in % and leave the unit unwritten.

The examples below pair each entry with its known result.
O=C(c1ccc(F)cc1)N1C[C@@H]2OCCN(c3ncccn3)[C@@H]2C1 | 10
O=C(NC[C@H]1OC[C@@H](NC2COC2)[C@@H]1O)Nc1ccccc1 | 12.4
O=C(NC[C@H]1OC[C@@H](NC2CCC2)[C@@H]1O)Nc1ccccc1 | 41.9

Attention now shifts to the item below.
Q. Given "Cc1cc2ccncc2n1CC1(O)CCN(C(=O)c2ccccn2)CC1" , state its recorded INHIBITION.
A. 18.3

----------
compounds and their reported INHIBITION
- System: Plasmodium berghei
- test_description: Screen against P. berghei liver stage (PbLuc), transformed with Luciferase, at 10uM
- Type: functional, HepG2
- measurement_setup: tested at 10 uM
The whole screen tested about 69,000 compounds, of which about 8,600 (12%) showed an effect of 50% or more. Many of the other results were omitted from the sample, so strong results are more common in it than they were.
Please respond with the number in % and leave the unit unwritten.

Cn1cc(CN2C[C@H]3CCC[C@@]3(COc3ccccn3)C2)cn1 | 67.5

Q. I'm curious: which INHIBITION was measured for Cn1ccc2c(C(=O)N3CCCC(c4nnc[nH]4)C3)cccc21 (centres undefined) tested on Plasmodium berghei?
A. -66.9

Q. I'm curious: which INHIBITION was measured for "CCc1oc(C(=O)NCCSc2ncn[nH]2)cc1CN1CCCC1" tested on Plasmodium berghei?
A. 37.9

Q. I'm curious: which INHIBITION was measured for Cc1cc(N2CCOC(c3ccc(C(N)=O)cn3)C2)ncn1 (centres undefined) tested on Plasmodium berghei?
A. 36.9

----------
compounds and their reported INHIBITION
- Test system: Plasmodium berghei
- test_description: Screen against P. berghei liver stage (PbLuc), transformed with Luciferase, at 10uM
- Type: functional, HepG2
- measurement_setup: tested at 10 uM
Screen size: about 69,000 compounds; about 8,600 (12%) showed an effect of 50% or more. The list comes from a sample in which strong results are over-represented; it also holds close analogues and randomly drawn compounds.
Please respond with the number in % and leave the unit unwritten.

Cc1cc(S(=O)(=O)N2CCCc3cc(Br)ccc32)sc1C(=O)O | 54.3
CCCOC(=O)N1CCCn2nc(C(=O)Nc3ccccc3)cc2C1 | -34.4
CCc1n[nH]c(C(=O)N2CCC3(CCCN(CCOC)C3=O)C2)c1C (centres undefined) | 41.2
CCOC(=O)C(C)NC(=O)N1CCN(c2nc3ccccc3n2C)CC1 (centres undefined) | 45

Q. I'm curious: which INHIBITION was measured for CC(C)c1nccn1C1CCCN(C(=O)c2cn3cccnc3n2)C1 (centres undefined) tested on Plasmodium berghei?
A. 1.78

Q. I'm curious: which INHIBITION was measured for "Cn1c(-c2cc3n(n2)CCCN(CC(=O)O)C3)nc2ccccc21" tested on Plasmodium berghei?
A. 57.1

Q. I'm curious: which INHIBITION was measured for "CN1CCn2nc(-c3nc4ccccc4n3C)cc2C1" tested on Plasmodium berghei?
A. 36.4

Q. I'm curious: which INHIBITION was measured for CCc1nccn1C1CCCN(C(=O)c2ccnc(N(C)C)c2)C1 (centres undefined) tested on Plasmodium berghei?
A. 65.85

Q. I'm curious: which INHIBITION was measured for "Cc1cc(C)n2c(CCCNS(=O)(=O)c3ccccc3)nnc2n1" tested on Plasmodium berghei?
A. 34.6

Q. I'm curious: which INHIBITION was measured for "CCCC(=O)NCc1cc(Br)c(OC)c(OC)c1" tested on Plasmodium berghei?
A. -26.1

Q. I'm curious: which INHIBITION was measured for "O=C(CCc1cc2n(n1)CCCN(CCc1ccccc1)C2)NC1CC1" tested on Plasmodium berghei?
A. 24.1

Q. I'm curious: which INHIBITION was measured for CCc1nccn1C1CCCN(C(=O)c2ccc(N(C)C)nn2)C1 (centres undefined) tested on Plasmodium berghei?
A. 45.65

Q. I'm curious: which INHIBITION was measured for "Cc1cc(S(=O)(=O)N2CCCc3cc(Cl)ccc32)sc1C(=O)O" tested on Plasmodium berghei?
A. -12.5

Q. I'm curious: which INHIBITION was measured for Cn1nc2c(c1NC(=O)c1ccc(C3CCCN3C3CCC3)s1)CCC2 (centres undefined) tested on Plasmodium berghei?
A. 15.4

----------
compounds and their reported INHIBITION
- Tested on: Plasmodium berghei
- test_description: Screen against P. berghei liver stage (PbLuc), transformed with Luciferase, at 10uM
- Type: functional, HepG2
- measurement_setup: tested at 10 uM
The whole screen tested about 69,000 compounds, of which about 8,600 (12%) showed an effect of 50% or more. This is one part of a sample in which strong results are shown more often than they occur.
Please respond with the number in % and leave the unit unwritten.

The examples below pair each entry with its known result.
Cc1cc(C)n(CC2CCCN2Cc2ncc(C(C)(C)C)o2)n1 (stereo unspecified) | -25.6
O=C(c1[nH]nc(C2CC2)c1Cl)N1CCN(S(=O)(=O)c2ccccc2)CC1 | 77.6
N#Cc1ccc(F)c(CN(CC(=O)N2CCCC2)CC2CCCO2)c1 (stereo unspecified) | -13.5
CCc1cc(NCc2cccnc2N2CCCCC2)n2ncnc2n1 | 36.2
NCC1CCCCN1C(=O)Cc1cccc(Br)c1 (stereo unspecified) | -0.159

Attention now shifts to the item below.
Q. Given COc1ccc(C(C)NC(=O)C2CCN(S(C)(=O)=O)CC2)cc1C (stereo unspecified) , state its recorded INHIBITION.
A. 68.1

----------
- Test system: Plasmodium berghei
- test_description: Screen against P. berghei liver stage (PbLuc), transformed with Luciferase, at 10uM
- Assay type: functional, HepG2
- measurement_setup: tested at 10 uM
About 8,600 (12%) of roughly 69,000 compounds showed an effect of 50% or more. What follows is part of a selection rich in strong results, with near analogues and random picks from the rest.
Classification field: 1 = INHIBITION at or over 20%; -1 = INHIBITION under 20%.

The following molecules have reported results that may help.
Cc1cc(C)nc(C2CCN(C3CCCCC3)C2)n1 (stereo unspecified) | -1
Cc1nccn1C1CCCN(C(=O)c2cnc[nH]2)C1 (stereo unspecified) | -1
CCc1noc(Cn2c(=O)c3c(C(F)(F)F)cc(C)nc3n2C)n1 | -1
CNC(=O)COC1COC2(CCN(Cc3ccncc3F)CC2)C1 (stereo unspecified) | 1
CCOC1COC2(CCN(Cc3cccc(F)c3)CC2)C1 (stereo unspecified) | 1
COc1ccc(C2=Nn3c(CCN)nnc3-c3ccccc3C2)cc1 | 1

Q. Is the recorded value of INHIBITION equal to or greater than 20% for this molecule? "COCCNc1cc(-c2ccccc2C(=O)O)c2cc[nH]c2n1"
A. 1

Q. Is the recorded value of INHIBITION equal to or greater than 20% for this molecule? "CS(=O)(=O)CCC(=O)N1C[C@H]2CC[C@@H](C1)N(Cc1ccccn1)C2=O"
A. -1

Q. Is the recorded value of INHIBITION equal to or greater than 20% for this molecule? "Cc1cc(Oc2ccc(NC(=O)C3CC3)cc2)cc(C2CCNCC2)n1"
A. -1

Q. Is the recorded value of INHIBITION equal to or greater than 20% for this molecule? "CN(C)C(=O)CNC(=O)c1cc2c(s1)CCN2S(C)(=O)=O"
A. 1

Q. Is the recorded value of INHIBITION equal to or greater than 20% for this molecule? "COCCNc1cc(-c2ccccc2S(N)(=O)=O)c2cc[nH]c2n1"
A. 1
